# Experimental System: FTase (protein farnesyltransferase) (UniProt P49354)
No end group written: not given here. *: point of attachment. Dansyl = CN(C)c1cccc2c(S(=O)(=O)*)cccc12
Would you kindly list Kd for each of these binders?
Note: state the figure and append the unit.

Examples from the recorded data:
{"columns": ["Binder", "Kd"],
 "data": [
  ["Dansyl-TKCKIS [dansyl-TKCKIS]", "4 nM"],
  ["Dansyl-TKCKIF [dansyl-TKCKIF]", "2.5 nM"],
  ["Dansyl-TKCSLC (cysteine pairing not given here) [dansyl-TKCSLC]", "5 nM"],
  ["Dansyl-TKCVVT [dansyl-TKCVVT]", "7 nM"],
  ["Dansyl-TKCSVS [dansyl-TKCSVS]", "2.1 nM"],
  ["Dansyl-TKCCIF (cysteine pairing not given here) [dansyl-TKCCIF]", "270 nM"]
]}

Please go through the list and note Kd for each binder.
1. Dansyl-TKCYPD [dansyl-TKCYPD]
2. Dansyl-TKCRIS [dansyl-TKCRIS]
3. Dansyl-TKCSIM [dansyl-TKCSIM]
4. Dansyl-TKCTMS [dansyl-TKCTMS]
5. Dansyl-TKCITQ [dansyl-TKCITQ]

["3.3 nM", "12 nM", "6 nM", "6 nM", "3.6 nM"]

Dear colleague, please send me the reported Kd for Dansyl-TKCSIS [dansyl-TKCSIS] when you can. 3.4 nM
